These data points were gathered from ChEMBL document CHEMBL4513216.

PROCEDURE_SUMMARY: Toxicity liver stage against HepG2, at 10uM
Format: cell-based
Set-up: test concentration 10 uM, cell line HepG2-A16-CD81EGFP
EXPERIMENTAL_SETUP: human, HepG2-A16-CD81EGFP cells; read-out: INHIBITION
Known cytotoxicity at 10 µM of a selection of compounds
Number only, in %; omit the unit.

Check out these entries, answers already filled in.
# COMPOUND, cytotoxicity at 10 µM, %
measured = [
    ("CSc1ccc(NC(=O)NCC2CCCO2)cc1F (stereo unspecified)", -7.81),
    ("COc1ccc(C(=O)N2CCC(Nc3ccc(C)nn3)CC2)cc1", -8.51),
    ("CCn1ncc2c1C(COC)CN(Cc1ccc(C)o1)C2 (stereo unspecified)", 5.41),
]

// sample "CCOC(=O)CCn1cnc2onc(-c3cc(OC)ccc3Cl)c2c1=O" , its cytotoxicity at 10 µM was -19

// sample "CCCn1cnc2c(cnn2-c2cccc(C)c2C)c1=O" , its cytotoxicity at 10 µM was -8.17

// sample "CN(CC(N)=O)Cc1ccc(F)cc1Cl" , its cytotoxicity at 10 µM was -3.53

// sample CCN1CCC(CNC(=O)Nc2cc(C)on2)C1 (stereo unspecified) , its cytotoxicity at 10 µM was -7.33

// sample "O=C(COC1CCCC1)NCCc1noc(-c2ccccn2)n1" , its cytotoxicity at 10 µM was 3.41

// sample CCCNC(=O)CN1CCOC(CC)C1 (stereo unspecified) , its cytotoxicity at 10 µM was 2.98

// sample "CCS(=O)(=O)N1CC[C@H]2O[C@H](c3nnc(C)o3)CC[C@H]21" , its cytotoxicity at 10 µM was -75.6

// sample "Fc1ccc(CN2CCO[C@H]3[C@H](OCC4CC4)CC[C@@H]32)cc1" , its cytotoxicity at 10 µM was -5.34

// sample "Cc1ccccc1CS(=O)(=O)NCCCN1CCCCC1" , its cytotoxicity at 10 µM was 19.4

// sample "CN(C)[C@@H]1CN(C(=O)Cc2ccc(F)cc2)[C@@H]2CCCO[C@H]12" , its cytotoxicity at 10 µM was 3.88
